# Tested on: PC9 cells (SM)
# assay info: PC-9 growth inhibition assay (cell proliferation), Method B
# Format: cell-based, human
# stated conditions: Homo sapiens, PC-9, 72 h, cellular proliferation, several runs
quantity: IC50 (nM)

These recorded examples may help you get a feel for the data.
smiles str: C=CC(=O)N1CC[C@@H](Oc2nc(Nc3ccc(N4CCC(N5CCN(C)CC5)CC4)cc3)c(C(N)=O)nc2CC)C1
IC50 / nM: 15.9

smiles str: C=CC(=O)Nc1cc(Nc2nccc(-n3nc(N(C)C)c4ccccc43)n2)c(OC(C)C)nc1N(C)CCN(C)C
IC50 / nM: 2.27

a. C=CC(=O)Nc1cc(Nc2nccc(-c3ccc(C(N)=O)c4[nH]ccc34)n2)c(OC)cc1N(C)CCN(C)C
b. C=CC(=O)Nc1cc(Nc2nccc(-n3nc(N(C)C)c4ccccc43)n2)c(OC)cc1N(C)CCN(C)C
c. C=CC(=O)Nc1cc(Nc2nccc(-c3cnc(NC)c(C(C)=O)c3)n2)c(OC)cc1N(C)CCN(C)C
*Q* Sort ascending by IC50. State the ranking by listing the labels in the requested order.
*A* b, a, c
(b: 2.29 nM, a: 5.65 nM, c: 13.4 nM)
